meta.source: patent US20240018145A1

Reported log10 EC50 values for the following compounds.
Test system: FLU A (PR/8/34)
test_description: Flu A Neuraminidase Antiviral Assay
Format: cell-based
Could you please treat all values as log10 of EC50 in nM?

Which log10 EC50 is listed for CCN1C(=O)c2c(O)c(=O)ccn2N2C1CCCC2(C)c1cccc(C2CC2)n1 (single isomer, unassigned) [Compound 55B] ?
1.27

Which log10 EC50 is listed for Cc1ccccc1C1N2C(CCC13CC1C(C3)C1(F)F)N(C)C(=O)c1c(O)c(=O)ccn12 (single isomer, unassigned) [Compound 69B] ?
1.76

----------
Tested on: FLU A (PR/8/34)
test_description: Flu A Neuraminidase Antiviral Assay
Format: cell-based
parameter: EC50

Guide cases for EC50, answers given:
[[record]]
compound = "CN1C(=O)c2c(O)c(=O)ccn2N2C1CCC(C)(C)C2(C)c1ccccc1 (single isomer, unassigned) [Compound 35B]"
parameter = "EC50"
experimental_value = "> 8.1 µM"

[[record]]
compound = "Cc1ccccc1C1C(CC2CC2(F)F)CCC2N(C)C(=O)c3c(O)c(=O)ccn3N12 (single isomer, unassigned) [Compound 88C]"
parameter = "EC50"
experimental_value = "0.004 µM"

[[record]]
compound = "CC1(c2ncc(F)cc2F)CCCC2N(CC(F)F)C(=O)c3c(O)c(=O)ccn3N21 (single isomer, unassigned) [Compound 47A]"
parameter = "EC50"
experimental_value = "0.0257 µM"


Continue with the compound presented below.
Which EC50 is listed for CN1C(=O)c2c(O)c(=O)ccn2N2C1CCC(O)C2(C)c1ccccc1 (stereo not shown) [Compound 137D] ?
0.0493 µM
